PROPERTY: melting point

Examples with their reported melting point follow.
COMPOUND	REPORTED RESULT
COC(=O)CCc1nc(C=O)ccc1O	92 to 95 °C
Cc1ccccc1C(=O)Nc1ccc(C(=O)N2CCCC(OCC(=O)N(C)C)c3ccccc32)cc1 (stereo not given)	203 to 204 °C
COc1ccc2c(c1Br)C(=O)C(=O)N2	250 to 251 °C
Cc1cc(F)ccc1-c1ccc(S(=O)(=O)N2c3ccccc3CC2C(=O)NCCOc2ccc(C(=O)O)c(F)c2)cc1 (stereo not given)	109 to 118 °C
Cc1c(C)c2c(c(C)c1C=O)CC(C)(C)C2	61 to 62 °C
Cc1ccc(S(=O)(=O)n2cc(Br)c(C)c2C=O)cc1	152 to 155 °C
Fc1ccc(Cn2c(NC3CCN(CCNc4ncccn4)CC3)nc3cncnc32)cc1	164 °C
S=c1nc(-c2ccc(Cl)cc2Cl)[nH]n1Cc1ccccc1	169 to 170 °C

Quote melting point reported for NCC(=O)N1CCC(C2c3ncc(Br)cc3CCc3cc(Cl)cc(Cl)c32)CC1 (single isomer, unassigned; (+)) please.
81 to 122 °C

Quote melting point reported for CCOC(=O)C1=C(C)NN=C(C(=O)OC)C1c1ccccc1C (stereo not given) please.
165 °C

Quote melting point reported for COc1ccc(C=C(c2ccc(OC)cc2)N(C)C)cc1 please.
67 to 69 °C

Quote melting point reported for COc1cc(OC)c2c(c1)N(Cc1ccccn1)C(=O)C21COc2cc3c(cc21)OCCO3 (stereo not given) please.
187 to 188 °C

Quote melting point reported for CC1=NC(=Cc2ccc(C#N)cc2)C(=O)O1 please.
192 to 193 °C

Quote melting point reported for CCS(=O)(=O)Nc1cc(C(=O)Nc2ccccc2)ccc1OC please.
175 to 177 °C

Quote melting point reported for C#CCn1ncc(=O)[nH]c1=O please.
148 °C
